Sourced from PubChem BioAssay (NCI)

System: HL-60(TB) leukemia
Assay: NCI tumour cell line growth inhibition, 48 h
property: TGI (µM)

INSERT INTO measurements (molecule, cmp, quantitative_readout) VALUES
  ('O=S(=O)(NCn1ccc2ccccc21)c1ccccc1', '=', 41),
  ('CSCCCNC(=O)c1ccc2c(c1)/C(=C/c1[nH]c(C)cc1C)C(=O)N2', '>', 100),
  ('CC(C)(C)[Si](C)(C)OCc1cccc(OCCOc2cccc(CO[Si](C)(C)C(C)(C)C)c2[N+](=O)[O-])c1[N+](=O)[O-]', '>', 100),
  ('Nc1ccc(S(=O)(=O)Nc2nc3ccccc3nc2N2CCCCCC2)cc1', '=', 52),
  ('c1ccc2c(c1)SCCCSCCSCCCS2', '>', 100),
  ('CN=C(/N=c1\ssc(=NC)n1C)N(C)C', '>', 100),
  ('Cc1cc(=O)[nH]c(NN2C(Cl)C(=O)C2c2ccc([N+](=O)[O-])cc2)n1 (stereo not given)', '=', 24.9),
  ('CCOC(=O)N1CCc2cc(OC)c(OC)cc2/C1=C\c1ccc(OC)c(OC)c1', '=', 53.1),
  ('COc1cc(C2C(Cl)C(=O)N2c2c(C)n(C)n(-c3ccccc3)c2=O)ccc1O (stereo not given)', '=', 64.1),
  ('COc1cc(C2C3=C(COC3=O)Oc3cc4c(cc32)OCO4)cc(OC)c1O (stereo not given)', '=', 0.294);
